Data origin: BindingDB's records for doi:10.3109/14756366.2013.827678

The next entries give measured IC50 for Histone deacetylase 8 (Homo sapiens, UniProt Q9BY41).
reported-metric: IC50 (nM)

> print(dat)
                         chemical.structure  unit.tag  value.observed
1  Cc1cc(C)cc(NC(=O)[C@@H](NC(=O)Nc2ccc(C(=O)NCCCCCC(=O)NO)cc2)c2ccccc2)c1        nM            1660
2  O=C(CCCCCNC(=O)c1ccc(NC(=O)N[C@H](C(=O)NCc2ccccc2)c2ccccc2)cc1)NO        nM            1510
3  O=C(CCCCCNC(=O)c1ccc(NC(=O)N[C@H](C(=O)Nc2cccc(Cl)c2)c2ccccc2)cc1)NO        nM            1280
4  O=C(CCCCCNC(=O)c1ccc(NC(=O)N[C@H](C(=O)Nc2ccccc2O)c2ccccc2)cc1)NO        nM            1300
5  Cc1cccc(NC(=O)[C@@H](NC(=O)Nc2ccc(C(=O)NCCCCCC(=O)NO)cc2)c2ccccc2)c1        nM            1320

a. O=C(CCCCCNC(=O)c1ccc(NC(=O)N[C@H](C(=O)Nc2cccc(C(F)(F)F)c2)c2ccccc2)cc1)NO
b. O=C(CCCCCNC(=O)c1ccc(NC(=O)N[C@H](C(=O)Nc2ccc(Cl)cc2Cl)c2ccccc2)cc1)NO
c. CC(C)(C)c1ccc(NC(=O)[C@@H](NC(=O)Nc2ccc(C(=O)NCCCCCC(=O)NO)cc2)c2ccccc2)cc1
List the 3 entries from lowest IC50 to highest IC50 value. Kindly provide the labels arranged according to the requested ordering.
a, b, c
